Header: pIC50 / Receptor-type tyrosine-protein kinase FLT3 (Homo sapiens, UniProt P36888) / multiple publications
Molecular target: Receptor-type tyrosine-protein kinase FLT3 (Homo sapiens, UniProt P36888)
Sequence (P36888 whole entry): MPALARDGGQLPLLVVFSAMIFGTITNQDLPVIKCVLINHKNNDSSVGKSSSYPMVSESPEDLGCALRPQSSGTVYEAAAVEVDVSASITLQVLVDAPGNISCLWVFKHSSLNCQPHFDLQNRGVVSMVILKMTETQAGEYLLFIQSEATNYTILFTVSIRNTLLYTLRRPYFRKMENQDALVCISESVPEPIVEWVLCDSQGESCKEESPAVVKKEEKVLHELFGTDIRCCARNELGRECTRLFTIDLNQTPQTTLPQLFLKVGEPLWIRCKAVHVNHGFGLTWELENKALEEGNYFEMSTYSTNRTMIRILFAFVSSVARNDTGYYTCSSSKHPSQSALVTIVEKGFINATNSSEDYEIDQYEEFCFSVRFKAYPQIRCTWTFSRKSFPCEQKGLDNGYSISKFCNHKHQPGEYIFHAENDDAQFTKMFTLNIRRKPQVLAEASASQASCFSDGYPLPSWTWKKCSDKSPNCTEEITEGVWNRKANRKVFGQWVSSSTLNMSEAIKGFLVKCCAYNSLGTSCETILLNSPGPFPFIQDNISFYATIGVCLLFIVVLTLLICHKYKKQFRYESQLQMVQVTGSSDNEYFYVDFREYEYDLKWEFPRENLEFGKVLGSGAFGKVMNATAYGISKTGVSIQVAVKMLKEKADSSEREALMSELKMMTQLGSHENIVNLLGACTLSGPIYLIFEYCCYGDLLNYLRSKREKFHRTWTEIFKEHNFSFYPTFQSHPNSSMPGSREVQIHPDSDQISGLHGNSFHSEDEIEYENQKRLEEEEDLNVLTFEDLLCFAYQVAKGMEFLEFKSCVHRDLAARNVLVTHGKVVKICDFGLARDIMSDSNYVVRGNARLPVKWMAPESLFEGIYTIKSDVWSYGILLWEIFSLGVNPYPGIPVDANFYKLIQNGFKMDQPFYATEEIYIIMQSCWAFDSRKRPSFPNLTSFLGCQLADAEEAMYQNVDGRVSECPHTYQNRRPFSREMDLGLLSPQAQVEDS
pIC50: −log10 of the molar value.

>  <Molecule smiles>
CN1CCN(Cc2ccc(Nc3ncc4c(=O)c(C(N)=O)cn(-c5ccc6c(c5)CCC6)c4n3)cc2)CC1

>  <pIC50>
9.00

$$$$
>  <Molecule smiles>
NC(=O)c1cc(N2CCOCC2)ccc1NC(=O)c1cnn2ccc(N[C@@H]3CCCNC3)nc12

>  <pIC50>
8.06

$$$$
>  <Molecule smiles>
Clc1cccc(-n2nncc2-c2ccncc2)c1

>  <pIC50>
5.36

$$$$
>  <Molecule smiles>
COc1cc2ncnc(Nc3ccc(F)c(Cl)c3)c2cc1NC(=O)/C(F)=C/CN(C)C

>  <pIC50>
5.17

$$$$
>  <Molecule smiles>
O=C(Nc1c[nH]nc1C(=O)Nc1ccc(CN2CCOCC2)cc1)c1ccccc1

>  <pIC50>
7.37

$$$$
>  <Molecule smiles>
COCCOc1cc2ncnc(Oc3cnn(CC(=O)Nc4cccc(OC)c4)c3)c2cc1OC

>  <pIC50>
8.70

$$$$
>  <Molecule smiles>
Cn1cc(-c2ccn3c(-c4cccc(Nc5cccc(C(C)(C)C)c5)n4)cnc3c2)cn1

>  <pIC50>
6.54

$$$$
>  <Molecule smiles>
COc1cc2c(Oc3ccc(NC(=O)c4cn(-c5ccccc5Cl)nn4)cc3F)ccnc2cc1OCCCN1CCCCC1

>  <pIC50>
8.05

$$$$
>  <Molecule smiles>
O=C1Nc2ccccc2/C1=C\c1ccc2cn[nH]c2c1

>  <pIC50>
7.31

$$$$
>  <Molecule smiles>
CCCn1cc(-c2ccc(NC(=O)Nc3cc(C(C)(C)C)on3)cc2)c2c(N)ncnc21

>  <pIC50>
7.82

$$$$
